# Test target: Ubiquitin-conjugating enzyme E2 N (Homo sapiens) (UniProt P61088)
# Sequence (P61088 whole entry, looked up): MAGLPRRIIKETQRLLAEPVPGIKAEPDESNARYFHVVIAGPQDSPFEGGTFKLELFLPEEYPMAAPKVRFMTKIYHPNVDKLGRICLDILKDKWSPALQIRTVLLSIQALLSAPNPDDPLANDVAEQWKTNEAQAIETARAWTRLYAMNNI
# Method summary: UBE2N binders by NMR, biophysical, purified protein (AID 1552)
# Assay context: NMR binding to purified UBE2N
Calls of active or inactive are those of the source. How the calls were made is not given here.
Reported metric: Kd

Form field: Kd recorded for CC(=O)Nc1ccc(Oc2nc(C)cc(C)n2)cc1 with Ubiquitin-conjugating enzyme E2 N (Homo sapiens) (UniProt P61088) (enter value)
> 4 mM (inactive)

Enter reported Kd observed with Ubiquitin-conjugating enzyme E2 N (Homo sapiens) (UniProt P61088) for CC[C@@]1(O)C[C@H](O)c2c(cc3c(c2O)C(=O)c2c(O)ccc(O)c2C3=O)[C@H]1C(=O)OC
> 4 mM (inactive)

Report Kd for COC(=O)C1CCN(c2ccc(Cl)nn2)CC1 tested on Ubiquitin-conjugating enzyme E2 N (Homo sapiens) (UniProt P61088).
> 4 mM (inactive)

Report Kd for Cc1nnc(SCc2cccs2)[nH]c1=O tested on Ubiquitin-conjugating enzyme E2 N (Homo sapiens) (UniProt P61088).
> 4 mM (inactive)

Please provide the recorded Kd for Cc1cc(C(=O)Nc2ccon2)cs1 , tested on Ubiquitin-conjugating enzyme E2 N (Homo sapiens) (UniProt P61088).
> 4 mM (inactive)

What value of Kd on Ubiquitin-conjugating enzyme E2 N (Homo sapiens) (UniProt P61088) does COc1ccc(Cl)c(S(=O)(=O)N2CCCC2)c1 have?
> 4 mM (inactive)

Kindly review the next compound as well.
# value lookup — system Ubiquitin-conjugating enzyme E2 N (Homo sapiens) (UniProt P61088), readout Kd, item Cc1occc1C(=O)Nc1nccs1
> 4 mM (inactive)
